- System: A549 NSCLC
- assayName: NCI tumour cell line growth inhibition, 48 h
reportedEndpoint: TGI

In the examples that follow, each entry is paired with its recorded TGI.
- CCOc1ccc(/C=C(\Cl)c2ccc(OC)c(OC)c2)cc1: > 100 µM
- Cc1c(C(=O)c2ccccc2C(=O)O)c2ccccc2n1C: > 100 µM
- Cn1ncc2c(N)nc(N3CCCCC3)nc21: > 100 µM
- C1CSCCCSCCSCCCSC1: > 100 µM
- CC(C)(C)NCc1cc(C(C)(C)C)cc(-c2ccc(Cl)cc2)c1O: 32.4 µM
- O=C1CC(=O)c2c(O)cc(O)c(c2O)-c2c(ccc(O)c2O)C2=CC(=O)c3c(O)cc(O)c(c3O2)-c2c1ccc(O)c2O (tested in a mixture with another compound): > 50 µM
- c1ccc(-c2sc(-c3cccs3)cc2Cc2cccs2)cc1: > 10 µM
- Cc1cc(C)c(C[N+](C)(C)C)c(C)c1C: 39.1 µM
- CCOC(=O)Oc1cc2c(c(OC)c1OC)-c1ccc(SC)c(=O)cc1C(NC(=O)C(F)(F)F)CC2 (stereo not given): > 100 µM

Below: the item to evaluate.
Lab note: need TGI with A549 NSCLC for entry O=C(Nc1c[nH]c(=O)[nH]c1=O)C(Cl)Cl , please look it up.
> 100 µM

* * *

- Tested on: OVCAR-8 ovarian
- assayName: NCI tumour cell line growth inhibition, 48 h
reportedEndpoint: TGI (µM)
Only the number, expressed in µM, is required.

Past entries and their recorded results:
* COc1ccc(N2C(=Nc3ccccc3)SC(=N/S(=O)(=O)c3ccccc3)/C2=N\S(=O)(=O)c2ccccc2)cc1 | 39.6
* COc1cccc(-c2ccc3c4c2O[C@H]2c5[nH]c6ccccc6c5C[C@@]5(O)[C@@H](C3)N(CC3CC3)CC[C@]425)c1 | 3.11

Recorded TGI of C(CCC[Te][Te]CCCCCCOC1CCCCO1)CCOC1CCCCO1 (configuration not stated) , please.
33.9

* * *

- Test system: BT-549 breast
- assayName: NCI tumour cell line growth inhibition, 48 h
reportedEndpoint: TGI (µM)
Numeric answer only, unit µM assumed.

Use the examples below as a reference point.
• O=C1C(NCCc2ccc(O)c(O)c2)=CC(=O)c2ncccc21 = 19.6
• CC(C)c1ccc(C(=O)Nc2sc3c(c2C#N)CCC(=O)C3)cc1 = 3.13
• COc1ccc2c(Nc3ccc(NS(C)(=O)=O)cc3)c3ccccc3nc2c1 = 3.67
• O=C1Sc2ccc(Br)cc2C(=O)Sc2ccccc21 = 28.2

// below: TGI requested for another compound
Consider the compound COc1cc2c3c(n(CCCNCCN)c(=O)c2cc1OC)-c1cc2c(cc1C3=O)OCO2 and give its measured TGI.
9.7

* * *

- Tested on: HL-60(TB) leukemia
Answer with one of the outcomes active, inactive

Example results:
* Cc1cc(CNC(=O)OCc2ccccc2)c(C)c2c1Oc1ccccc1O2 | inactive
* CCN1C(=S)N(CC)C2C1NC(=S)N2/N=C/C=C/c1ccccc1 (configuration not stated) | active
* Cc1nc2sc(C(=O)Nc3cccc4ccccc34)c(N)c2cc1C(=O)c1ccccc1 | inactive
* Cn1ncc2c(N)nc(N3CCCCC3)nc21 | inactive
* CC1=C[C@H]2c3c(c(O)c(O)c4oc5ccccc5c(=O)c34)[C@H](c3cc(O)c(O)c4oc5ccccc5c(=O)c34)[C@H]2C(C)(C)C1 | inactive

Record lookup: outcome of this test for O=C(NCCCNc1cc(-c2cn(-c3ccccc3)nc2-c2cccc(O)c2)ccn1)c1ccccc1 ?
inactive

Which result was noted for this molecule in the test: COC(=O)c1c2c(c(C)[n+]([O-])c1C)C(=O)C=C(NCc1ccc(F)c(F)c1)C2=O
active

Outcome? COc1ccc(/C=C/c2nc(NCCCN(C)C)c3ccccc3n2)cc1
inactive

* * *

- Test system: NCI-H522 lung
- assayName: NCI tumour cell line growth inhibition, 48 h
reportedEndpoint: TGI (µM)
Please reply with the bare figure in µM and do not write the unit itself.

Past entries and their recorded results:
- OCC1OC(n2ccc3c(NO)ncnc32)C(O)C1O (stereo unspecified): 0.718
- CC[C@@]1(O)C(=O)NCc2c1cc1n(c2=O)Cc2cc3c(N)cccc3nc2-1: 9.71
- CC(=O)O[C@H]1CC[C@@]2(C)C(=CC[C@H]3[C@@H]4C/C(=C\c5cccc(OCCN6CCOCC6)c5)[C@H](OC(C)=O)[C@@]4(C)CC[C@@H]32)C1: 27.5
- COC1=C(N=[N+]=[N-])C(=O)c2ncccc2C1=O: 3.9

Now examine the next entry.
Dear colleague, I am looking for the recorded TGI of the following compound: O=c1c(SSc2coc3cc(F)ccc3c2=O)coc2cc(F)ccc12
47.3

* * *

Below is a list of entries, each paired with its recorded TGI value.
- Tested on: SK-OV-3 ovarian
- assayName: NCI tumour cell line growth inhibition, 48 h

• ClC(Cl)c1nc(-c2cccnc2)n2nc(-c3ccccc3)cc2n1 = 5.02 µM
• CCOC(=O)/C(=C\c1ccc(N(C)C)cc1)S(=O)(=O)C(F)(F)C(F)(F)C(F)(F)C(F)(F)F = > 100 µM

Would you mind telling me what TGI value was observed for CC(C(=O)ON1C(=O)CCC1=O)c1ccc(C(=O)c2ccccc2)s1 (stereo not drawn) ?
> 100 µM

Could you tell me which TGI is on file for Cn1ccn2c3nc4ccccc4nc3c(=O)c(C#N)c12 ?
> 100 µM

# input compound: CC(=O)N1CCc2c([nH]c3ccc(Br)cc23)C1c1ccccc1 (stereo not drawn) ; wanted: its TGI
> 10 µM

Which measured TGI value corresponds to Cn1c(=O)c(Oc2ccccc2F)cc2cnc(NC3CCOCC3)nc21 ?
> 25 µM

Query: TGI; subject: COc1ccc2cc1Oc1ccc(cc1)C(Sc1ccccc1)CCOC(=O)CC2 (stereo not drawn)
> 100 µM

* * *

- System: NCI-H522 lung
// allowed return values: TRUE = active, FALSE = inactive

* CC1=C[C@H]2c3c(c(O)c(O)c4oc5ccccc5c(=O)c34)[C@H](c3cc(O)c(O)c4oc5ccccc5c(=O)c34)[C@H]2C(C)(C)C1 | FALSE

Attention now turns to another entry.
What call does the record list for COc1cc(/C=C\[N+](=O)[O-])ccc1OCc1ccccc1 ?
FALSE

* * *

- Tested on: MALME-3M melanoma
- assayName: NCI tumour cell line growth inhibition, 48 h
reportedEndpoint: TGI

Here's what some known entries look like.
* N=c1nnc(=O)c2c(s1)-n1ncc(C(=O)O)c1NN2 | > 100 µM
* CCCCCC(=O)N[C@@H](c1ccccc1)C(O)C(=O)OC1C[C@@]2(O)C(OC(=O)c3ccccc3)C3[C@](C)(C(=O)[C@H](O)C(=C1C)C2(C)C)C(OC1OCC(O)C(O)C1O)C[C@H]1OC[C@@]31OC(C)=O (stereo partly drawn) | > 26.1 µM
* N#Cc1cnc2cc(OC[C@@H](O)CO)c(NC(=O)CC3CSSC3)cc2c1Nc1ccc(OCc2cccc(F)c2)c(Cl)c1 | 0.938 µM
* COc1ccc(-c2cc(/C=C3\C(=O)Nc4ccc(Cl)cc43)[nH]n2)cc1 | 20 µM
* O=C1/C(=C\c2cccc(Oc3ccccc3)c2)S(=O)(=O)C(c2ccccc2)N1c1ccccc1Cl (stereo not drawn) | > 100 µM
* O=[N+]([O-])c1ccc(N/N=C/c2c(O)ccc3ccccc23)nc1 | > 100 µM
* O=C1C(F)=CC(COC(c2ccccc2)(c2ccccc2)c2ccccc2)OC1n1cc(F)c(=O)[nH]c1=O (stereo not drawn) | 31.4 µM
* CC(C)c1ccc(/C(C(=O)O)=C(\O)C(=O)O)cc1 | > 100 µM
* COC(=O)C(C)(N=Cc1ccccc1)c1ccccc1 (stereo not drawn) | > 100 µM
* Cn1c(=O)c(Oc2ccccc2F)cc2cnc(NC3CCOCC3)nc21 | > 25 µM

Field request: TGI | item: CN1NC2(CCCCC2)ON=C1c1ccccc1
> 100 µM

For the compound Cc1nc2c(n1C(C)(C)C)C(=O)c1ccccc1C2=O , what TGI is on record?
> 100 µM

GET /values?readout=TGI&item= Clc1nc(Cl)c(Cl)c(Cl)n1
35.9 µM

Value lookup for TGI; key = NC(=O)c1cc(Br)cc(C2CCCCC2)c1O
35.9 µM

Any idea what its TGI is? The compound is CCN(CC)CCCOC(=O)/C=C/c1c(C)[nH]c(=O)[nH]c1=O
> 625 µM

What value of TGI has been recorded for this entry: CN(C)CCCN1c2nc3ccccc3cc2Sc2cc3ccccc3nc21
2.89 µM

Look up TGI: Cc1cc(-c2[nH]c(C(=O)O)cc2I)on1
> 100 µM

For the compound shown here, COc1cc2noc(-c3ccccc3)c2cc1OC , give the reported TGI.
> 100 µM

* * *

- System: PC-3 prostate
- assayName: NCI tumour cell line growth inhibition, 48 h
Measured TGI of individual entries

Example results:
* CC(C)c1ccc(/C(C(=O)O)=C(\O)C(=O)O)cc1 | > 100 µM
* Cc1ccnc2[nH]c(-c3cccc(Cl)c3)cc(=O)c12 | > 100 µM
* O=C1/C(=C\c2cccc(Oc3ccccc3)c2)S(=O)(=O)C(c2ccccc2)N1c1ccccc1Cl (centres undefined) | > 100 µM
* CCCCCC(=O)N[C@@H](c1ccccc1)C(O)C(=O)OC1C[C@@]2(O)C(OC(=O)c3ccccc3)C3[C@](C)(C(=O)[C@H](O)C(=C1C)C2(C)C)C(OC1OCC(O)C(O)C1O)C[C@H]1OC[C@@]31OC(C)=O (some centres undefined) | > 86.4 µM
* COc1cc(C2SCC(=O)N2c2ccc(-n3c(-c4ccccc4)nc4ccccc4c3=O)cc2)ccc1O (centres undefined) | > 100 µM

Name the reported TGI value associated with the molecule O=C(/C=C/c1ccsc1)c1ccco1
28.5 µM

TGI for O=C1CSc2nc3ccccc3n2/C=N\N1 ?
> 100 µM

Reported TGI for Clc1ccc2[nH]cc(-c3nc(-c4c[nH]c5ncccc45)cs3)c2c1 : what is it?
28 µM

Entry C=CC1ON(Cc2ccccc2)CCc2cc(OC)c(OC)cc21 (centres undefined) : reported TGI = ?
> 100 µM

Origin of measurements: PubChem BioAssay (NCI)
